Give measured pKd for each item. Keep answers brief.
Target desc: JAK2 (JH1domain-catalytic, Y1007F,Y1008F) kinase (Homo sapiens, UniProt O60674, Y1007F/Y1008F)
Construct: JAK2 (JH1domain-catalytic, Y1007F,Y1008F) kinase was expressed as N-terminal fusion
Sequence (O60674 849-1124 Y1007F/Y1008F limits assumed): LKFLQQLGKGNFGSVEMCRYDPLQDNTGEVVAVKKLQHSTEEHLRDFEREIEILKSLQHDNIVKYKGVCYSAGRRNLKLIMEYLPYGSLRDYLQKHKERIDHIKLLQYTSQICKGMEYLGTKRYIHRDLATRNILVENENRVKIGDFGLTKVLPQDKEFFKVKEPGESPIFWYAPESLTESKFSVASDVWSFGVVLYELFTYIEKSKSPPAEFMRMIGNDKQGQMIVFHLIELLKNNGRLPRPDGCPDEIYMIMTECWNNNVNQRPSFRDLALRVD
Method: JAK2 JH1 Domain Binding Assay
Condition context: qPCR readout
pKd: −log10 of the molar value.

Worked examples follow.
> print(dat)
                                   compound  assay.endpoint  experimental.result
1  Cn1c(Nc2cc(C(C)(C)C)n([C@H]3CCOC3)n2)nc2ncc(Oc3cnn4ccnc4c3)c(Cl)c21             pKd         7.30 to 8.00
2  CCN1CCN(Cc2ccc(Nc3nc4ncc(Oc5cnn6ccncc56)c(Cl)c4n3C)cc2C(F)(F)F)CC1             pKd               > 8.00
3  CNc1nccn2ncc(Oc3cnc4nc(Nc5ccc(CN6CC[C@H](OC)C6)c(C(F)(F)F)c5)n(C)c4c3Cl)c12             pKd         7.30 to 8.00
4  Cn1c(Nc2cc(C(C)(C)C)n(C3CC4(COC4)C3)n2)nc2ncc(Oc3cnn4ccncc34)c(C#N)c21             pKd         7.30 to 8.00
5  COCCOc1ccc2c(Oc3cnc4nc(Nc5cc(C(F)(F)F)cn(C)c5=O)n(C)c4c3Cl)cnn2c1             pKd               > 8.00
6  CNc1nccn2ncc(Oc3cnc4nc(Nc5cc(C(F)(F)F)cn([C@@H]6CCCOC6)c5=O)n(C)c4c3Cl)c12 (single isomer, unassigned)             pKd         7.30 to 8.00

Now let's try a different one.
Q) State its pKd for this compound: "COCc1n[nH]c2ncc(Oc3cnc4nc(Nc5cc(C(F)(F)F)cn(C)c5=O)n(C)c4c3C#N)cc12"
A) > 8.00

====

Give measured pKd for each item. Keep answers brief.
Target desc: JAK2 (JH1domain-catalytic, Y1007F,Y1008F) kinase (Homo sapiens, UniProt O60674, Y1007F/Y1008F)
Construct: JAK2 (JH1domain-catalytic, Y1007F,Y1008F) kinase was expressed as N-terminal fusion
Method: JAK2 JH1 Domain Binding Assay
Condition context: qPCR readout
pKd: −log10 of the molar value.

> print(dat)
                                   molecule  assay.endpoint  experimental.result
1  Cn1c(Nc2cc(C3CC3)cn(CCO)c2=O)nc2ncc(Oc3cnn4ccccc34)c(Cl)c21             pKd               > 8.00
2  Cn1c(Nc2cc(C3CC3)cn([C@H]3CC[C@H]3O)c2=O)nc2ncc(Oc3cnn4ccncc34)c(Cl)c21 (single isomer, unassigned)             pKd               > 8.00
3  CNc1nccn2ncc(Oc3cnc4nc(Nc5ccc(CN6CCC(F)(F)C6)c(C(F)(F)F)c5)n(C)c4c3Cl)c12             pKd         6.00 to 7.30
4  Cn1c(Nc2cc(C(C)(C)C)n([C@H]3COC[C@@H]3O)n2)nc2ncc(Oc3cnc4cnc(C5CC5)n4c3)c(C(F)F)c21 (single isomer, unassigned)             pKd         7.30 to 8.00
5  CNc1cn2ncc(Oc3cnc4nc(Nc5cc(CN6CC(F)C6)cc(C(F)(F)F)c5)n(C)c4c3Cl)c2cn1             pKd         6.00 to 7.30
6  CN(C)[C@@H]1CCN(Cc2cc(Nc3nc4ncc(Oc5cnn6ccncc56)c(Cl)c4n3C)cc(C(F)(F)F)c2)C1             pKd               > 8.00

For each listed entry, give its pKd.
1. Cn1c(Nc2cc(C(C)(C)C)n(CCC#N)n2)nc2ncc(Oc3cnn4ccncc34)c(Cl)c21
2. Cn1c(Nc2nc([C@H]3CCOC3)c(C(C)(C)C)s2)nc2ncc(Oc3cnn4ccnc4c3)c(Cl)c21 (single isomer, unassigned)

A)
1: > 8.00; 2: 7.30 to 8.00
